The origin of these recorded values is paper PMC10945555.

# Test system: clinical MDR Staphylococcus epidermidis isolates
# assay-text: MIC, broth microdilution, 81 clinical MDR strains
# Assay type: cell-based
# cond: Staphylococcus epidermidis, clinical strain 1 (Table S2); read-out: MIC
Listed below: MIC values for each entry.
The figure you give is taken to be in mg/L; do not add the unit.

Example entries begin here.
molecule: CC(=O)NC[C@H]1CN(c2ccc(N3CCOCC3)c(F)c2)C(=O)O1 [linezolid, reference compound]
MIC [mg/L]: 1.6
//
molecule: O=S(=O)(NC1CCN(CCC(Oc2ccc(C(F)(F)F)cc2)c2cccs2)CC1)c1cccc(C(F)(F)F)c1 (stereo not drawn)
MIC [mg/L]: 0.8
//
molecule: O=C(Nc1cccc(Cl)c1)NC1CCN(CCC(Oc2ccc(C(F)(F)F)cc2)c2cccs2)CC1 (stereo not drawn)
MIC [mg/L]: 0.8
//
molecule: O=S(=O)(NC1CCN(CCC(Oc2ccc(C(F)(F)F)cc2)c2cccs2)CC1)c1cccc(Br)c1 (stereo not drawn)
MIC [mg/L]: 0.8

Incoming: Specify measured MIC for O=S(=O)(NC1CCN(CCC(Oc2ccc(C(F)(F)F)cc2)c2ccccc2)CC1)c1cccc(Cl)c1 (stereo not drawn) .
Outgoing: 0.2

Incoming: Specify measured MIC for O=S(=O)(NC1CCN(CCC(Oc2ccc(C(F)(F)F)cc2)c2cccs2)CC1)c1cccc(Cl)c1 (stereo not drawn) .
Outgoing: 0.1

* * *

Listed below: MIC values for each entry.
# Test system: clinical MDR Staphylococcus epidermidis isolates
# assay-text: MIC, broth microdilution, 81 clinical MDR strains
# Type: cell-based
# cond: Staphylococcus epidermidis, clinical strain 22 (Table S2); read-out: MIC
The figure you give is taken to be in µg/mL; do not add the unit.

molecule: O=S(=O)(NC1CCN(CCC(Oc2ccc(C(F)(F)F)cc2)c2cccs2)CC1)c1cccc(Cl)c1 (stereo not drawn) [Compound 14]
target-desc: clinical MDR Staphylococcus epidermidis isolates
value-kind: MIC
reading: 6.25
//
molecule: O=S(=O)(NC1CCN(CCC(Oc2ccc(C(F)(F)F)cc2)c2cccs2)CC1)c1cccc(C(F)(F)F)c1 (stereo not drawn) [Compound 21]
target-desc: clinical MDR Staphylococcus epidermidis isolates
value-kind: MIC
reading: 6.25
//
molecule: O=C(Nc1cccc(Cl)c1)NC1CCN(CCC(Oc2ccc(C(F)(F)F)cc2)c2cccs2)CC1 (stereo not drawn) [Compound 25]
target-desc: clinical MDR Staphylococcus epidermidis isolates
value-kind: MIC
reading: 1.6
//
molecule: CC(=O)NC[C@H]1CN(c2ccc(N3CCOCC3)c(F)c2)C(=O)O1 [linezolid, reference compound]
target-desc: clinical MDR Staphylococcus epidermidis isolates
value-kind: MIC
reading: 1.6

Incoming: Specify measured MIC for O=S(=O)(NC1CCN(CCC(Oc2ccc(C(F)(F)F)cc2)c2cccs2)CC1)c1cccc(Br)c1 (stereo not drawn) [Compound 18] .
Outgoing: 3.12

Incoming: Specify measured MIC for O=S(=O)(NC1CCN(CCC(Oc2ccc(C(F)(F)F)cc2)c2ccccc2)CC1)c1cccc(Cl)c1 (stereo not drawn) [Compound 12] .
Outgoing: 12.5

* * *

# Test system: biofilm-producing Staphylococcus epidermidis strains
# assay-text: Inhibition of biofilm formation (MBIC, resazurin)
# Assay type: cell-based
# cond: clinical strain 70 (Table S4)
Listed below: MBIC values for each entry.
Answer with the number, then the unit.

Example entries begin here.
compound: CC(=O)NC[C@H]1CN(c2ccc(N3CCOCC3)c(F)c2)C(=O)O1 [linezolid, reference compound]
MBIC: 50 µg/mL
//
compound: O=S(=O)(NC1CCN(CCC(Oc2ccc(C(F)(F)F)cc2)c2ccccc2)CC1)c1cccc(Cl)c1 (stereo not shown)
MBIC: 125 µg/mL
//
compound: O=C(Nc1cccc(Cl)c1)NC1CCN(CCC(Oc2ccc(C(F)(F)F)cc2)c2cccs2)CC1 (stereo not shown)
MBIC: 31.25 µg/mL

Incoming: Specify measured MBIC for O=S(=O)(NC1CCN(CCC(Oc2ccc(C(F)(F)F)cc2)c2cccs2)CC1)c1cccc(Cl)c1 (stereo not shown) .
Outgoing: 125 µg/mL

* * *

# Test system: clinical MDR Staphylococcus epidermidis isolates
# assay-text: MIC, broth microdilution, 81 clinical MDR strains
# Format: cell-based
# cond: Staphylococcus epidermidis, clinical strain 20 (Table S2); read-out: MIC
value-kind: MIC (µg/mL)
The figure you give is taken to be in µg/mL; do not add the unit.

Example entries begin here.
compound: O=S(=O)(NC1CCN(CCC(Oc2ccc(C(F)(F)F)cc2)c2cccs2)CC1)c1cccc(Cl)c1 (stereo not drawn) [Compound 14]
target-desc: clinical MDR Staphylococcus epidermidis isolates
MIC [µg/mL]: 1.6
--
compound: O=S(=O)(NC1CCN(CCC(Oc2ccc(C(F)(F)F)cc2)c2cccs2)CC1)c1cccc(Br)c1 (stereo not drawn) [Compound 18]
target-desc: clinical MDR Staphylococcus epidermidis isolates
MIC [µg/mL]: 3.12
--
compound: CC(=O)NC[C@H]1CN(c2ccc(N3CCOCC3)c(F)c2)C(=O)O1 [linezolid, reference compound]
target-desc: clinical MDR Staphylococcus epidermidis isolates
MIC [µg/mL]: 1.6
--
compound: O=C(Nc1cccc(Cl)c1)NC1CCN(CCC(Oc2ccc(C(F)(F)F)cc2)c2cccs2)CC1 (stereo not drawn) [Compound 25]
target-desc: clinical MDR Staphylococcus epidermidis isolates
MIC [µg/mL]: 0.1
--
compound: O=S(=O)(NC1CCN(CCC(Oc2ccc(C(F)(F)F)cc2)c2cccs2)CC1)c1cccc(C(F)(F)F)c1 (stereo not drawn) [Compound 21]
target-desc: clinical MDR Staphylococcus epidermidis isolates
MIC [µg/mL]: 3.12

Let us move to another entry and its MIC.
Incoming: Enter measured MIC, system clinical MDR Staphylococcus epidermidis isolates, for the compound shown: O=S(=O)(NC1CCN(CCC(Oc2ccc(C(F)(F)F)cc2)c2ccccc2)CC1)c1cccc(Cl)c1 (stereo not drawn) [Compound 12]
Outgoing: 6.25

* * *

# System: biofilm-producing Staphylococcus epidermidis strains
# assay-text: Inhibition of biofilm formation (MBIC, resazurin)
# Format: cell-based
# cond: clinical strain 75 (Table S4)
Listed below: MBIC values for each entry.
The figure you give is taken to be in µg/mL; do not add the unit.

Example entries begin here.
compound: O=C(Nc1cccc(Cl)c1)NC1CCN(CCC(Oc2ccc(C(F)(F)F)cc2)c2cccs2)CC1 (stereo not shown)
unit-name: µg/mL
MBIC: 15.6
//
compound: O=S(=O)(NC1CCN(CCC(Oc2ccc(C(F)(F)F)cc2)c2cccs2)CC1)c1cccc(Cl)c1 (stereo not shown)
unit-name: µg/mL
MBIC: 31.25
//
compound: CC(=O)NC[C@H]1CN(c2ccc(N3CCOCC3)c(F)c2)C(=O)O1 [linezolid, reference compound]
unit-name: µg/mL
MBIC: 25

Let us move to another entry and its MBIC.
Incoming: Enter measured MBIC, system biofilm-producing Staphylococcus epidermidis strains, for the compound shown: O=S(=O)(NC1CCN(CCC(Oc2ccc(C(F)(F)F)cc2)c2ccccc2)CC1)c1cccc(Cl)c1 (stereo not shown)
Outgoing: 31.25

* * *

# Tested on: biofilm-producing Staphylococcus epidermidis strains
# assay-text: Inhibition of biofilm formation (MBIC, resazurin)
# Assay type: cell-based
# cond: clinical strain 79 (Table S4)
value-kind: MBIC
Answer with the number, then the unit.

Example entries begin here.
compound: O=C(Nc1cccc(Cl)c1)NC1CCN(CCC(Oc2ccc(C(F)(F)F)cc2)c2cccs2)CC1 (stereo not shown)
reading: 7.8 µg/mL
--
compound: O=S(=O)(NC1CCN(CCC(Oc2ccc(C(F)(F)F)cc2)c2cccs2)CC1)c1cccc(Cl)c1 (stereo not shown)
reading: 31.25 µg/mL
--
compound: CC(=O)NC[C@H]1CN(c2ccc(N3CCOCC3)c(F)c2)C(=O)O1 [linezolid, reference compound]
reading: 15.6 µg/mL

Let us move to another entry and its MBIC.
Incoming: Specify measured MBIC for O=S(=O)(NC1CCN(CCC(Oc2ccc(C(F)(F)F)cc2)c2ccccc2)CC1)c1cccc(Cl)c1 (stereo not shown) .
Outgoing: 31.25 µg/mL

* * *

# Test system: biofilm-producing Staphylococcus epidermidis strains
# assay-text: Biofilm eradication (MBEC Assay Kit)
# Type: cell-based
# cond: S. epidermidis ATCC 35984 (Table S4)
value-kind: MBEC (µg/mL)
The figure you give is taken to be in µg/mL; do not add the unit.

Example entries begin here.
molecule: CC(=O)NC[C@H]1CN(c2ccc(N3CCOCC3)c(F)c2)C(=O)O1 [linezolid, reference compound]
MBEC, µg/mL: 15.6
//
molecule: O=C(Nc1cccc(Cl)c1)NC1CCN(CCC(Oc2ccc(C(F)(F)F)cc2)c2cccs2)CC1 (stereo not shown) [Compound 25]
MBEC, µg/mL: 7.8
//
molecule: O=S(=O)(NC1CCN(CCC(Oc2ccc(C(F)(F)F)cc2)c2cccs2)CC1)c1cccc(Cl)c1 (stereo not shown) [Compound 14]
MBEC, µg/mL: 31.25

Incoming: Specify measured MBEC for O=S(=O)(NC1CCN(CCC(Oc2ccc(C(F)(F)F)cc2)c2ccccc2)CC1)c1cccc(Cl)c1 (stereo not shown) [Compound 12] .
Outgoing: 31.25
